# target_desc: MK2 (Homo sapiens, UniProt P49137)
# Sequence (P49137 whole entry): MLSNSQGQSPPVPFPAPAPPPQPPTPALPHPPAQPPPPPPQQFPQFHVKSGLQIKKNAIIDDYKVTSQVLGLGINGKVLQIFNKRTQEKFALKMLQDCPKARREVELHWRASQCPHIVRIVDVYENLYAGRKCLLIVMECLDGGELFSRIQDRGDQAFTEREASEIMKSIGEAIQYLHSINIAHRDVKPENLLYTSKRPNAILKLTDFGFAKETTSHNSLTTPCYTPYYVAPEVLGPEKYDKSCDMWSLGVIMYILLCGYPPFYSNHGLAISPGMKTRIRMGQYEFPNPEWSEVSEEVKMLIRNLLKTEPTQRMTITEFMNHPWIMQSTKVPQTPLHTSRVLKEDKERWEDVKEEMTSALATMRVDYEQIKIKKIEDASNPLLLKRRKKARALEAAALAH
# measurement_description: MK2 degradation in human THP-1 monocytic cells (MSD, 24 h)
# Format: cell-based
# Design: endogenous in cells
# condition_details: THP-1 cells, read-out: MK2 MSD THP-1 degradation 24 h GMean External Abs DC50
endpoint: DC50

molecule: C[C@@H]1CNc2c(sc3ccc4nc(N5CCC(CN6CCC7(CC6)CCN(c6ccc8c(c6)n(C)c(=O)n8C6CCC(=O)NC6=O)CC7)CC5)ccc4c23)C(=O)N1 (some centres unmarked)
DC50: < 1 nM

Here's the next entry for you.
Form field DC50, entry Cc1ccc(NC(=O)c2cccc(C(F)(F)F)c2)cc1N1Cc2cnc(Nc3ccc(N4CCN(CCCCCC(=O)N[C@H](C(=O)N5C[C@H](O)C[C@H]5C(=O)N[C@@H](C)c5ccc(-c6scnc6C)cc5)C(C)(C)C)CC4)nc3)nc2N(C)C1=O : 1 to 10 nM

---

Assign Dmax to each entry below.
# target_desc: MK2 (Homo sapiens)
# measurement_description: MK2 degradation in human THP-1 monocytic cells (MSD, 24 h)
# Assay type: cell-based
# Design: endogenous in cells
# condition_details: THP-1, THP-1 cells

compound: C[C@@H]1CNc2c(sc3ccc4nc(-c5ccc(N6CCC(CN7CCN(c8cccc9c8n(C)c(=O)n9C8CCC(=O)NC8=O)CC7)CC6)cc5F)ccc4c23)C(=O)N1 (some centres unmarked) [Compound I-307]
value: > 75%
--
compound: C[C@@H]1CNc2c(sc3ccc4nc(-c5ccc(C#CCCNC(=O)CCCCCCCCCc6ccc7c(c6)n(C)c(=O)n7C6CCC(=O)NC6=O)cc5)ccc4c23)C(=O)N1 (some centres unmarked) [Compound I-53]
value: 50 to 75%
--
compound: C[C@@H]1Cc2[nH]c(-c3ccnc(-c4ccc(N5CCC(CN6CCC(c7ccc8c(c7)n(C)c(=O)n8C7CCC(=O)NC7=O)CC6)CC5)cc4)c3)cc2C(=O)N1 (some centres unmarked) [Compound I-263]
value: > 75%
--
compound: Cn1c(=O)n(C2CCC(=O)NC2=O)c2ccc(N3CCC(CN4CCN(c5ccc(-c6cc(-c7cc8c([nH]7)C7(CC7)CNC8=O)ccn6)cc5)CC4)CC3)cc21 (centres unmarked) [Compound I-244]
value: > 75%

Here's the next entry for you.
Form field Dmax, entry C[C@@H]1Cc2oc(-c3ccnc(-c4ccc(N5CCN(CC6CCN(c7cccc8c7n(C)c(=O)n8C7CCC(=O)NC7=O)CC6)CC5)nc4)c3)cc2C(=O)N1 (some centres unmarked) [Compound I-416] : < 50%

---

# target_desc: MK2 (Homo sapiens)
# measurement_description: MK2 degradation in human THP-1 monocytic cells (MSD, 24 h)
# Assay type: cell-based
# Design: endogenous in cells
# condition_details: THP-1, THP-1 cells
endpoint: Dmax

Please review the entries below; each comes with its answer.
molecule: C[C@@H]1CNc2c(sc3ccc4nc(-c5ccc(N6CCN(CC7CN(c8cccc9c8n(C)c(=O)n9C8CCC(=O)NC8=O)C7)CC6)cc5)ccc4c23)C(=O)N1 (some centres unmarked)
Dmax: > 75%

molecule: C[C@@H]1CNc2c(sc3ccc4nc(-c5ccc(N6CCN(CC7CN(c8ccc9c(c8)n(C)c(=O)n9C8CCC(=O)NC8=O)C7)CC6)nc5)ccc4c23)C(=O)N1 (some centres unmarked)
Dmax: > 75%

molecule: C[C@@H]1CN(C)c2c(sc3ccc4nc(-c5ccc(N6CCN(CCCc7ccc8c(c7)n(C)c(=O)n8C7CCC(=O)NC7=O)CC6)cc5)ccc4c23)C(=O)N1 (some centres unmarked)
Dmax: > 75%

Quick request: Dmax for each listed item, please.
1. Cn1c(=O)n(C2CCC(=O)NC2=O)c2cccc(N3CCC(CCN4CCN(c5ccc(-c6cc(-c7cc8c([nH]7)CCNC8=O)ccn6)cc5)CC4)CC3)c21 (centres unmarked)
2. Cc1cc(-c2cc(-c3cc4c([nH]3)C3(CC3)CNC4=O)ccn2)cc(C)c1N1CCN(CC2CCN(c3ccc4c(c3)n(C)c(=O)n4C3CCC(=O)NC3=O)CC2)CC1 (centres unmarked)
3. Cn1c(=O)n(C2CCC(=O)NC2=O)c2ccc(N3CC(CN4CCN(c5ccc(-c6cc(-c7cc8c(s7)CCNC8=O)ccn6)cc5)CC4)C3)cc21 (centres unmarked)
4. C[C@@H]1CN(C)c2c(sc3ccc4nc(-c5ccc(N6CCC(CN7CCN(c8cccc9c(N%10CCC(=O)NC%10=O)cncc89)CC7)CC6)cc5)ccc4c23)C(=O)N1
5. Cc1nc(N2CCN(CC3CN(c4ccc5c(c4)n(C)c(=O)n5C4CCC(=O)NC4=O)C3)CC2)ccc1-c1ccc2c(ccc3sc4c(c32)NC[C@@H](C)NC4=O)n1 (some centres unmarked)

A:
["> 75%", "> 75%", "< 50%", "< 50%", "> 75%"]

Quick request: Dmax for each listed item, please.
1. C[C@@H]1CNc2c(sc3ccc4nc(-c5ccc(N6CC7(CCN(c8ccc9c(c8)n(C)c(=O)n9C8CCC(=O)NC8=O)CC7)C6)nc5)ccc4c23)C(=O)N1 (some centres unmarked)
2. O=C1CCN(c2cncc3c(N4CCN(CC5CCN(c6ccc(-c7cc(-c8cc9c([nH]8)CCNC9=O)ccn7)cc6)CC5)CC4)cccc23)C(=O)N1
3. Cn1c(=O)n(C2CCC(=O)NC2=O)c2cccc(CCCN3CCN(c4ccc(-c5cc(-c6cc7c([nH]6)C6(CC6)CNC7=O)ccn5)cc4)CC3)c21 (centres unmarked)

A:
1: > 75%; 2: > 75%; 3: 50 to 75%

Data provenance is patent US20230135894A1.
